assay: pKa; format: physicochemical
measurement_name: pKa
In your answer, state the number alone without any accompanying words.

For the compound CC(C)(CNC(N)=O)NCC(O)COC(=O)c1ccccc1F (stereo not shown) [compound of formula II] , what pKa is on record? 8.17

Data credit: patent US4579867A
